Reference source for all entries: PubChem BioAssay (NCI)

System: NCI-H226 lung
experimental.details: NCI tumour cell line growth inhibition, 48 h
Listed below: log10 TGI values for each entry.
quantity: log10 TGI (log10 of the value in µM)

[[record]]
compound = "CCCCNC(=O)CC1=C(C)/C(=C/c2[nH]c(-c3ccc[nH]3)cc2OC)N=C1C"
readout_value = 0.94

[[record]]
compound = "O=c1c2c3c(sc2nc2n1sc1nc4sc5c(c4c(=O)n12)CCCC5)CCCC3"
readout_value = 1.99

[[record]]
compound = "Cc1cc2c(C(C)C)c(O)c(O)c(/C=N/O)c2c(O)c1-c1c(C)cc2c(C(C)C)c(O)c(O)c(/C=N/O)c2c1O"
readout_value = 0.99

[[record]]
compound = "C[C@H]1[C@H]2[C@H](C[C@@]3(C)C4=CC[C@H]5C(C)(C)[C@@H](OC6OCC(O)C(O)C6O)CC[C@@]56C[C@@]46CC[C@]23C)O[C@@]2(O)[C@@H]1OC(C)(C)[C@H]2O (stereo not given in full)"
readout_value = 0.83

[[record]]
compound = "O=C(CNc1ccc([N+](=O)[O-])cc1)Nn1c(-c2ccccc2)nc2ccccc2c1=O"
readout_value = 1.40


====

System: M14 melanoma
experimental.details: NCI tumour cell line growth inhibition, 48 h
Listing of recorded TGI by entry.
quantity: TGI

[[record]]
compound = "CCc1nc(N)nc(N)c1-c1ccc(N2CCNCC2)c([N+](=O)[O-])c1"
system_under_test = "M14 melanoma"
readout_value = "31.9 µM"

[[record]]
compound = "CN1C(=O)C(O)CC1c1ccccc1F (centres undefined)"
system_under_test = "M14 melanoma"
readout_value = "> 100 µM"

[[record]]
compound = "O=[N+]([O-])c1ccc(C2Nn3c(nnc3-c3cccc([N+](=O)[O-])c3)S2)cc1 (centres undefined)"
system_under_test = "M14 melanoma"
readout_value = "> 100 µM"

[[record]]
compound = "C=C1[C@@H](OC(C)=O)/C=C/C2C3C(=O)[C@@](C)(OC(C)=O)[C@H]([C@H](OC(C)=O)[C@]4(O)[C@@H](C)C(=O)O[C@H]4[C@H]1Cl)[C@@]23C (some centres undefined)"
system_under_test = "M14 melanoma"
readout_value = "> 100 µM"

[[record]]
compound = "c1ccc(C2(c3cc4ccccc4[nH]3)OCCO2)nc1"
system_under_test = "M14 melanoma"
readout_value = "> 100 µM"

[[record]]
compound = "Fc1ccc(C2CC(c3cccc(Nc4ccncc4)c3)=NN2c2ccccc2)cc1 (centres undefined)"
system_under_test = "M14 melanoma"
readout_value = "3.71 µM"

[[record]]
compound = "O=C(NCCc1ccccn1)c1ccc2cc(C(=O)N3CC(CCl)c4ccc([N+](=O)[O-])cc43)[nH]c2c1 (centres undefined)"
system_under_test = "M14 melanoma"
readout_value = "> 100 µM"

[[record]]
compound = "CN1CCOC1(C)c1ccccc1 (centres undefined)"
system_under_test = "M14 melanoma"
readout_value = "> 100 µM"

[[record]]
compound = "CCOP(=O)(OCC)C(Cc1c[nH]c2ccccc12)C(=O)O (centres undefined)"
system_under_test = "M14 melanoma"
readout_value = "> 100 µM"

[[record]]
compound = "CC(C)=NC(C(=O)O)C(C)(C)S (centres undefined)"
system_under_test = "M14 melanoma"
readout_value = "> 100 µM"

[[record]]
compound = "CC12CCC(=O)N1[C@@H](c1ccccc1)[C@@H](c1ccccc1)O2 (some centres undefined)"
system_under_test = "M14 melanoma"
readout_value = "> 100 µM"

[[record]]
compound = "c1ccc(CN2C3C4N(Cc5ccccc5)C2C2N(Cc5ccccc5)C(C(N2Cc2ccccc2)N4Cc2ccccc2)N3Cc2ccccc2)cc1"
system_under_test = "M14 melanoma"
readout_value = "> 100 µM"

[[record]]
compound = "CCN1CCCCCCCCCC(=N/O)/C(=N\\O)C1"
system_under_test = "M14 melanoma"
readout_value = "> 100 µM"

[[record]]
compound = "CC(C)(Oc1cccc(N2CCC[C@@H](C(=O)N(Cc3ccc(-c4cn[nH]c4)cc3)C3CC3)C2)c1)C(=O)N1CCNCC1"
system_under_test = "M14 melanoma"
readout_value = "30.1 µM"

[[record]]
compound = "Cc1[nH]c2ccccc2c1/C=C/c1c(C)[nH]c2ccccc12"
system_under_test = "M14 melanoma"
readout_value = "> 100 µM"

[[record]]
compound = "O=C(CC(=O)N1N=C(n2ccc3ccccc32)CC1c1ccccc1)Nc1ccccc1Cl (centres undefined)"
system_under_test = "M14 melanoma"
readout_value = "> 100 µM"

[[record]]
compound = "S=c1[nH]nc(COc2ccc(Cl)cc2)n1-c1ccccc1"
system_under_test = "M14 melanoma"
readout_value = "> 100 µM"

[[record]]
compound = "COC(=O)c1cc(C#N)[nH]c1-c1ccc(Br)s1"
system_under_test = "M14 melanoma"
readout_value = "22.9 µM"

[[record]]
compound = "C/C=C(/C)C(=O)OC1C=C(CO)C(=O)C(OC(=O)C2(C)OC2C)C1C(C)C (centres undefined)"
system_under_test = "M14 melanoma"
readout_value = "3.49 µM"

[[record]]
compound = "CN(C)/C=N/c1cc(=O)n(C)c(=O)n1C"
system_under_test = "M14 melanoma"
readout_value = "> 100 µM"

[[record]]
compound = "COc1ccc(/C=C/C(=O)OC2CC34CCNC35CC(OC5(OC)C2OC)c2ccc(OC)c(O)c24)cc1O (centres undefined)"
system_under_test = "M14 melanoma"
readout_value = "> 100 µM"

[[record]]
compound = "O=c1nc(N2CCCCC2)sc2[nH]c3ccccc3c12"
system_under_test = "M14 melanoma"
readout_value = "> 100 µM"

[[record]]
compound = "CCNCCS(=O)(=O)NC[C@@]1(c2ccccc2)SC(NC(=O)C(C)(C)C)=NN1C(=O)C(C)(C)C"
system_under_test = "M14 melanoma"
readout_value = "0.0209 µM"

[[record]]
compound = "COC1=CC(=O)C2=C(C1=O)[C@H]1CC[C@]3(C)C(=O)CC[C@H]3[C@@H]1CC2"
system_under_test = "M14 melanoma"
readout_value = "> 100 µM"

[[record]]
compound = "O=Nn1c2ccccc2c2ccccc21"
system_under_test = "M14 melanoma"
readout_value = "> 100 µM"

[[record]]
compound = "Cn1c(=O)oc2cc(C(O)CN3CCN(Cc4ccc5c(c4)OCO5)CC3)ccc21 (centres undefined)"
system_under_test = "M14 melanoma"
readout_value = "> 100 µM"

[[record]]
compound = "CC(=O)OC[C@@]1(C)[C@@H]2[C@@H]3[C@@]4(CO[C@]3(C)C(=O)[C@@]3(OC(C)=O)C[C@H](C)[C@H](OC(C)=O)[C@@H]3[C@H]4OC(C)=O)[C@H](OC(=O)c3ccccc3)C[C@@H]21"
system_under_test = "M14 melanoma"
readout_value = "> 100 µM"

[[record]]
compound = "CN1C(=O)[C@@H](CC2CCCC2)N(C2CCCC2)c2nc(Nc3cc(Cl)c(O)c(Cl)c3)ncc21"
system_under_test = "M14 melanoma"
readout_value = "> 100 µM"

[[record]]
compound = "C[Si](C)(C)CCOCN(C(=O)C1=CCC2(CC1)OCCO2)c1ccccc1I"
system_under_test = "M14 melanoma"
readout_value = "39.5 µM"

[[record]]
compound = "N#CC(Cl)CS(=O)(=O)c1ccccc1 (centres undefined)"
system_under_test = "M14 melanoma"
readout_value = "9.59 µM"

[[record]]
compound = "O=[N+]([O-])c1ccc(C2=NOC(c3ccccc3)N2C23CC4CC(CC(C4)C2)C3)cc1 (centres undefined)"
system_under_test = "M14 melanoma"
readout_value = "88.4 µM"

[[record]]
compound = "COC(=O)C1C(=O)C(C(=O)OC)C2CCC1N2C (centres undefined)"
system_under_test = "M14 melanoma"
readout_value = "> 100 µM"

[[record]]
compound = "COC(=O)C(Cc1c(-c2[nH]c3ccccc3c2CC(NC(C)=O)C(=O)OC)[nH]c2ccccc12)NC(C)=O (centres undefined)"
system_under_test = "M14 melanoma"
readout_value = "> 100 µM"

[[record]]
compound = "NC(=O)NC(=O)Nc1ccc(Br)cc1"
system_under_test = "M14 melanoma"
readout_value = "> 45.1 µM"

[[record]]
compound = "O=[N+]([O-])c1ccccc1S(=O)(=O)c1cccc2c1NCCC2"
system_under_test = "M14 melanoma"
readout_value = "> 100 µM"

[[record]]
compound = "COc1ccc(/C=C/c2cc(O)cc(OC3OC(CO)C(O)C(O)C3O)c2)cc1O (centres undefined)"
system_under_test = "M14 melanoma"
readout_value = "> 100 µM"

[[record]]
compound = "Oc1c(Cl)cc(Cl)c(Cl)c1Cc1c(O)c(Cl)cc(Cl)c1Cl"
system_under_test = "M14 melanoma"
readout_value = "13.9 µM"

[[record]]
compound = "CNc1ccc(C)cc1S(=O)(=O)c1ccccc1[N+](=O)[O-]"
system_under_test = "M14 melanoma"
readout_value = "> 100 µM"

[[record]]
compound = "Cc1ccc(S(=O)(=O)NC(=O)NC(CCCCN)C(=O)O)cc1 (centres undefined)"
system_under_test = "M14 melanoma"
readout_value = "> 100 µM"

